Entry source: patent US6555714B1

# TARGET: UniProt:A0A1D6H1G0
# Sequence (A0A1D6H1G0 entry or part of it): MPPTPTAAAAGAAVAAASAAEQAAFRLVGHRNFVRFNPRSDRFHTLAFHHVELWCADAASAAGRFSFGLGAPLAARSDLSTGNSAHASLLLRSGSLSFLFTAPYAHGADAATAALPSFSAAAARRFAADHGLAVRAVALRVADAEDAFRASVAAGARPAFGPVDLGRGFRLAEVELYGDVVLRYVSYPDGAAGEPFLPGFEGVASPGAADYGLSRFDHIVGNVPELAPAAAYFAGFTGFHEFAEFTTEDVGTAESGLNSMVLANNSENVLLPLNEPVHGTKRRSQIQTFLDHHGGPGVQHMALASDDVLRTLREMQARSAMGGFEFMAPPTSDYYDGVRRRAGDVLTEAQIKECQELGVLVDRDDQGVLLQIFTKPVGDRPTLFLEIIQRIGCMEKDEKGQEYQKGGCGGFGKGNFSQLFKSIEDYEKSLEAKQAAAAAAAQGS
pIC50: −log10 of the molar value.
PROPERTY LABEL: pIC50

* CS(=O)(=O)c1ccc(C(=O)c2c(O)cc(Cl)cc2Cl)c(Cl)c1 | 8.32
* CS(=O)(=O)c1ccc(C(=O)c2cc(C(=O)O)ccc2O)c(Cl)c1 | 7.15
* Cc1cc(Cl)cc(C(=O)c2ccc(S(C)(=O)=O)cc2Cl)c1O | 8.21
